# tested-system: human PD-1 / PD-L1-Ig binding on Jurkat cell line over-expressing human PD-1 (Jurkat-PD-1) (Homo sapiens)
# Construct: expressed in transfected cells; host or cells: Jurkat
# Sequence (Q15116 25-288): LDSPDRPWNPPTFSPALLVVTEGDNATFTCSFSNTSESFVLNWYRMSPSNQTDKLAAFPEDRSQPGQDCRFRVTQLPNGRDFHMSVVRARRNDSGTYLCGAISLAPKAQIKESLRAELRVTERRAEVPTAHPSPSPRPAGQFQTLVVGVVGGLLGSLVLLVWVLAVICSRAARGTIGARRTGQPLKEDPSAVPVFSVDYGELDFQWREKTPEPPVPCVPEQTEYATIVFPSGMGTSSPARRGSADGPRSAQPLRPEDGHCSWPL
# procedure-text: Jurkat-PD-1 Cell Binding High-Content Screening Assay (CBA)
# Assay type: cell-based
# condition-details: Jurkat-PD-1 cells, PE-labeled PD-L1-Ig 20 nM final; read-out: Jurkat HPD1_PDL1 IC50
# Protocol: Example 3. Jurkat-PD-1 Cell Binding High-Content Screening Assay (CBA) Jurkat-PD-1 Cell Binding High-Content Screening Assay (CBA). Phycoerythrin (PE) was covalently linked to the Ig epitope tag of human PD-L1-Ig and fluorescently-labeled PD-L1-Ig was used for binding studies with a Jurkat cell line over-expressing human PD-1 (Jurkat-PD-1). Briefly, 8×10^3 Jurkat-hPD-1 cells were seeded into 384 well plates in 20 μl of DMEM supplemented with 10% fetal calf serum. […]
Where a SMILES comes first, the peptide text is derived from it. Bridges are numbered along the chain shown (N, C = ends). [ ]: non-standard residue; d: D form. Bip = N[C@@H](Cc1ccc(-c2ccccc2)cc1)C(=O)O; Orn = NCCC[C@H](N)C(=O)O; Dab = NCC[C@H](N)C(=O)O
A collection of molecules and their measured IC50
Give a bare numeral; the unit µM is implied.

CC(C)C[C@@H]1NC(=O)[C@H](Cc2c[nH]c3ccccc23)NC(=O)[C@H](CC(=O)O)NC(=O)[C@H](Cc2ccc(O)cc2)NC(=O)[C@H](Cc2ccccc2)NC(=O)CSC[C@@H](C(=O)N[C@@H](C)C(N)=O)NC(=O)[C@H](CO)NC(=O)[C@H](C(C)C)NC(=O)[C@H](CC(C)C)NC(=O)[C@H](CCN)NC(=O)[C@@H](C)NC(=O)[C@H](CCCN)NC(=O)[C@H](C(C)C)NC(=O)[C@H](Cc2ccc(-c3ccccc3)cc2)NC1=O [Compound 1095] ({CH2CO}-FYDWL[Bip]V[Orn][dA][Dab]LVSCA-NH2; thioether N-14)
0.146
CC(C)C[C@H]1NC(=O)[C@H](CCCN)NC(=O)[C@H](CCC(=O)O)NC(=O)[C@H](Cc2ccc(-c3ccccc3)cc2)NC(=O)[C@H](C(C)C)NC(=O)[C@H](Cc2c[nH]c3ccccc23)NC(=O)[C@H](CC(=O)O)NC(=O)[C@H](Cc2ccc(-c3cccc(C(=O)O)c3)cc2)NC(=O)[C@H](Cc2ccc(OCC(=O)O)cc2)NC(=O)CSC[C@@H](C(=O)N[C@@H](C)C(N)=O)NC(=O)[C@H]([C@@H](C)O)NC(=O)[C@H](C(C)C)NC(=O)[C@H](CC2CCCCC2)NC(=O)[C@H](CCN)NC1=O [Compound 2163]
0.0176
CC(C)C[C@@H]1NC(=O)[C@H](Cc2c[nH]c3ccccc23)NC(=O)[C@H](CC(=O)O)NC(=O)[C@H](Cc2ccc(O)cc2)NC(=O)[C@H](Cc2ccccc2)NC(=O)CSC[C@@H](C(=O)NCC(N)=O)NC(=O)[C@H](CO)NC(=O)[C@H](C(C)C)NC(=O)[C@H](CC(C)C)NC(=O)[C@H](CCN)NC(=O)[C@@H](C)NC(=O)[C@H](CCN)NC(=O)[C@H](C(C)C)NC(=O)[C@H](Cc2ccc(-c3ccccc3)cc2)NC1=O [Compound 1106] ({CH2CO}-FYDWL[Bip]V[Dab][dA][Dab]LVSCG-NH2; thioether N-14)
0.0667

// next item, IC50 requested
Query (molecule): CC(C)C[C@H]1NC(=O)[C@H](CCCN)NC(=O)[C@H](C(C)C)NC(=O)[C@H](Cc2ccc(-c3ccccc3)cc2)NC(=O)[C@H](C(C)C)NC(=O)[C@H](Cc2c[nH]c3ccccc23)NC(=O)[C@H](CC(=O)O)NC(=O)[C@H](Cc2ccc(OCC(=O)O)cc2)NC(=O)[C@H](C(C)O)NC(=O)CSC[C@@H](C(=O)N[C@@H](C)C(N)=O)NC(=O)[C@H](C(C)O)NC(=O)[C@H](C(C)C)NC(=O)C(CC2CCCCC2)NC(=O)[C@H](CCN)NC1=O (stereo partly shown) [Compound 2511] ; field requested: IC50
0.0051
